These entries and their values trace back to ChEMBL document CHEMBL1201862.

System: BJ
Experiment: cytotoxicity toward BJ-TERT-LT-ST fibroblasts, dose response, cell-based, RAS-independent, luminescence (AID 1935);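 further: BJ fibroblasts immortalized with TERT plus LT and ST oncogenes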
Assay type: functional
Conditions: Homo sapiens
The source made the active and inactive calls. No stated cut-off is given here; in the data, actives have a measured EC50 and inactives only a lower limit.

MOLECULE	EC50
Oc1ccccc1N=Nc1nc(-c2ccccc2)c(-c2ccccc2)[nH]1	1.67 µM (active)
CC(=O)Nc1cccc(C(=O)/C=C/c2ccc(/C=C/C(=O)c3cccc(NC(C)=O)c3)cc2)c1	3.93 µM (inconclusive)
COC(=O)/C(=C\Nc1ccc(Cl)cc1Cl)NC(=O)c1ccc(OC)cc1	15.3 µM (inconclusive)
CC(=O)Nc1ccc(/C=N/Nc2nc3ccccc3[nH]2)cc1	> 150 µM (inconclusive)
